Where do these numbers come from? They come from patent US12581252B2.

Assay System: H1047R PIK3CA enzyme (Homo sapiens, UniProt P42336, H1047R)
Sequence (P42336 whole entry H1047R): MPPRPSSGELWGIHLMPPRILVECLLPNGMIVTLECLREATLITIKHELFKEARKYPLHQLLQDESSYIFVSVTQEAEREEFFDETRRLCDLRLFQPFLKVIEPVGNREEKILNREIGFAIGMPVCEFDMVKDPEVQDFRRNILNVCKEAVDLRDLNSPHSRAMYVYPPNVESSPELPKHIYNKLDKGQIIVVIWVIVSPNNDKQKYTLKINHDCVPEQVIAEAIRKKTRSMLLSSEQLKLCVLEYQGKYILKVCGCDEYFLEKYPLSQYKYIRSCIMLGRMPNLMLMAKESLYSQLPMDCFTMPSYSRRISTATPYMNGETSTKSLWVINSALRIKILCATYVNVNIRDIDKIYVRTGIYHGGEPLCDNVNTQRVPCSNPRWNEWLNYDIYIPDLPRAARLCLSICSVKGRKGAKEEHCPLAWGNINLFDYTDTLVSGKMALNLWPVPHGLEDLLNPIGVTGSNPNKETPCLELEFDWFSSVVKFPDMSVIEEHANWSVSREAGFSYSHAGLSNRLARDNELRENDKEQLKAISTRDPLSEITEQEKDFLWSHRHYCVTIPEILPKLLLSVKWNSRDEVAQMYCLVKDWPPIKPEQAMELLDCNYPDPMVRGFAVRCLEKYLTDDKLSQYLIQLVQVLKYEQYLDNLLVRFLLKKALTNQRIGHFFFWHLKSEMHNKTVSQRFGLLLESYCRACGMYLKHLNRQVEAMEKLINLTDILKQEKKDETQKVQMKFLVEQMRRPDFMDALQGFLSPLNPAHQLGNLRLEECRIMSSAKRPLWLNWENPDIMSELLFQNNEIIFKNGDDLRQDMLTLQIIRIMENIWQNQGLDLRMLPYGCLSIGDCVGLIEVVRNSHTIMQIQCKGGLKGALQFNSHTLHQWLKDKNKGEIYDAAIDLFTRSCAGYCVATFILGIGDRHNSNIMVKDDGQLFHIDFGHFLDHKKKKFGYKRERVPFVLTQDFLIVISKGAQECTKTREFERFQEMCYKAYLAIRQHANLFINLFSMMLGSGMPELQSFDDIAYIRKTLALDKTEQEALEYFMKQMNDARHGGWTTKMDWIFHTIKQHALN
Sequence (P27986 whole entry partner): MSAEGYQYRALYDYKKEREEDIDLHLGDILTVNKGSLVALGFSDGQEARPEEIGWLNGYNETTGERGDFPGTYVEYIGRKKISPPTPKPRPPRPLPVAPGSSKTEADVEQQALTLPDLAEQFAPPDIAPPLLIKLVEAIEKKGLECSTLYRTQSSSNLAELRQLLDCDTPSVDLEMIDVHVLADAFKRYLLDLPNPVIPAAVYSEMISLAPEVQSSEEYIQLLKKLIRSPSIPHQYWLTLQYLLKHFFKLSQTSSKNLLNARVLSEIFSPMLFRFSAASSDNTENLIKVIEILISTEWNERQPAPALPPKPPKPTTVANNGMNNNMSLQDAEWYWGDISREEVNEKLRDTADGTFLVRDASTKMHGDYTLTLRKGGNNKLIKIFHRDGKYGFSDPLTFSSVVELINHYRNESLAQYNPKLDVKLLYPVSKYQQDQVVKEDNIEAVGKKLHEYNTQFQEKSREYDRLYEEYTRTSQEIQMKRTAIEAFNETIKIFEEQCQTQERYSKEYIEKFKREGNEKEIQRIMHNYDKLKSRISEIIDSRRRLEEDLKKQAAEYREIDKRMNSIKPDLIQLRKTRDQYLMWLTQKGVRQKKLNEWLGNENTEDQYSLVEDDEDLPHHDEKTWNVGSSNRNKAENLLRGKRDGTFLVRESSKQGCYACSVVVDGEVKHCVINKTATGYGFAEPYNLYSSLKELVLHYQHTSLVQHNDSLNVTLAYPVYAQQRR
Experiment Description: ADP-Glo Biochemical PIK3CA Kinase Assay
pIC50: −log10 of the molar value.
// pIC50 lookup, one value per entry
Assay Readout: pIC50

- O=C1N[C@@H](c2cc(F)ccc2Cl)c2c(NC(=O)N3C[C@@](O)(C(F)(F)F)c4ccccc43)cc(Cl)cc21 (single isomer, unassigned): ≥ 7.00
- O=C(Nc1cc(OCC2CCO2)cc2c1C(c1cc(F)ccc1Cl)NC2=O)c1cc(F)cc(C(F)(F)F)c1 (racemic): ≥ 7.00
- N#C[C@H]1C[C@@H](Oc2cc(NC(=O)c3cc(F)cc(C(F)(F)F)c3)c3c(c2)C(=O)NC3c2cc(F)ccc2Cl)C1 (mixture of isomers): ≥ 7.00
- O=C(Nc1cc(F)cc(C(F)(F)F)c1)c1cccc2c1C(c1cc(F)ccc1Cl)NC2=O (stereo not drawn): 5.00 to 6.00
- Cc1nc2cc(-c3cc(NC(=O)c4cc(F)cc(C(F)(F)F)c4)c4c(c3)C(=O)NC4c3cc(F)ccc3Cl)ccc2o1 (stereo not drawn): ≥ 7.00
- O=C(Nc1cc(-c2ccc3nc(C(F)F)cn3c2)cc2c1[C@@H](c1cc(F)ccc1Cl)NC2=O)c1cc(F)cc(C(F)(F)F)c1: 5.00 to 6.00
